Target or test system: Carbonic anhydrase 4 (Bos taurus)
pKi: −log10 of the molar value.
Entries are grouped by pKi into these classes: class 1 = under 7, class 2 = from 7 up to 8, class 3 = 8 and over

CC(C)(C)C(=O)Nc1nnc(S(N)(=O)=O)s1 :: class 2
CCCC(CCC)C(=O)OCCc1ccc(S(N)(=O)=O)cc1 :: class 1
Cc1ccc(S(=O)(=O)Nc2nnc(S(N)(=O)=O)s2)cc1 :: class 3
NS(=O)(=O)c1nnc(NC(=O)c2ccccc2)s1 :: class 2

---

pKi: −log10 of the molar value.
As an illustration, consider measured pKi for compounds on UniProt P00915.
Sequence (P00915 whole entry): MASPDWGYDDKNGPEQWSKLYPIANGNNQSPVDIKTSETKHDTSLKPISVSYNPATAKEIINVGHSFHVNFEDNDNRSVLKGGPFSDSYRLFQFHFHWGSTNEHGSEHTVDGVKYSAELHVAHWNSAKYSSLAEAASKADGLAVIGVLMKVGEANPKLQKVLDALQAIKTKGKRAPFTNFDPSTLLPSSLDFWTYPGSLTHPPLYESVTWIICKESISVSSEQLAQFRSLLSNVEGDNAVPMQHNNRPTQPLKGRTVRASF
Measurement name: pKi

CCCC(CCC)C(=O)Nc1ccc(S(N)(=O)=O)cc1Cl :: 6.02
CC(C)(C)OC(=O)Nc1nnc(S(N)(=O)=O)s1 :: 6.34
NS(=O)(=O)c1nnc(NS(=O)(=O)c2ccc(NC(=O)[C@@H]3C4C=CC(C4)C3C(=O)O)cc2)s1 (stereo partly drawn) :: 8.26
NS(=O)(=O)c1nnc(NS(=O)(=O)Cc2ccccc2)s1 :: 8.15
NS(=O)(=O)c1nnc(NC(=O)C23C[C@H]4C[C@@H](C2)C[C@@H](C3)C4)s1 :: 6.07
CCCC(CCC)C(=O)Nc1ccc2nc(S(N)(=O)=O)sc2c1 :: 7.21
CCCC(CCC)C(=O)OCCc1ccc(S(N)(=O)=O)cc1 :: 5.89
Cc1ccc(S(=O)(=O)NC(=O)Nc2nnc(S(N)(=O)=O)s2)cc1 :: 8.52

---

As an illustration, consider measured log10 Ki for compounds on Carbonic anhydrase 2 (Homo sapiens, UniProt P00918).
Measurement name: log10 Ki (log10 of the value in nM)

CCCC(CCC)C(=O)Nc1ccccc1S(N)(=O)=O :: 2.41
NS(=O)(=O)c1nnc(NS(=O)(=O)c2ccc(NC(=O)[C@@H]3C4C=CC(C4)C3C(=O)O)cc2)s1 (stereo partly specified) :: 0.18
CCCC(CCC)C(=O)Nc1ccc(S(N)(=O)=O)cc1 :: 2.38
Cc1ccc(S(=O)(=O)NC(=O)Nc2nnc(S(N)(=O)=O)s2)cc1 :: 0.60
Cc1ccc(S(=O)(=O)Nc2nnc(S(N)(=O)=O)s2)cc1 :: 0.60
CCCC(CCC)C(=O)NCCc1ccc(S(N)(=O)=O)cc1 :: 1.92
COc1cc(C(=O)Nc2nnc(S(N)(=O)=O)s2)cc(OC)c1OC :: 1.00
CCCC(CCC)C(=O)NCc1ccc(S(N)(=O)=O)cc1 :: 1.98
NS(=O)(=O)c1nnc(NS(=O)(=O)Cc2ccccc2)s1 :: 0.70
CC(C)(C)OC(=O)Nc1nnc(S(N)(=O)=O)s1 :: 0.95
CCCC(CCC)C(=O)Nc1ccc(S(N)(=O)=O)cc1F :: 1.65

---

Target or test system: UniProt:Q95323
So basically: is Ki under 50 nM? Then Y. Not under? Then N.

CCCC(CCC)C(=O)Nc1nnc(S(N)(=O)=O)s1 :: Y
CC1(C)O[C@@H]2[C@@H](CO[C@@]3(COS(N)(=O)=O)OC(C)(C)O[C@@H]23)O1 [TOPIRAMATE] :: N
CC(C)(C)OC(=O)Nc1nnc(S(N)(=O)=O)s1 :: N
CCCC(CCC)C(=O)/N=c1/sc(S(N)(=O)=O)nn1C :: Y
CCCC(CCC)C(=O)Nc1ccccc1S(N)(=O)=O :: N
NS(=O)(=O)c1nnc(NS(=O)(=O)c2ccc(NC(=O)[C@@H]3C4C=CC(C4)C3C(=O)O)cc2)s1 (stereo partly specified) :: Y

---

Test system: Mus musculus
Assay explanation: Anticonvulsant activity in mice by MES test at 0.5 h following intraperitoneal injection of 30 mg/kg dose.
Type: functional
Measurement name: Protected mice (%)

Cc1ccc(S(=O)(=O)NC(=O)Nc2nnc(S(N)(=O)=O)s2)cc1 :: 8
NS(=O)(=O)c1nnc(NC(=O)CCNS(=O)(=O)c2ccc(I)cc2)s1 :: 33
NS(=O)(=O)c1nnc(NC(=O)C23C[C@H]4C[C@@H](C2)C[C@@H](C3)C4)s1 :: 83

---

Test system: Mus musculus
Assay explanation: Anticonvulsant activity in mice by MES test at 0.5 h following intraperitoneal injection of 30 mg/kg dose.
Assay type: functional
Measurement name: Protected mice (%)

CC(=O)/N=c1/sc(S(N)(=O)=O)nn1C [METHAZOLAMIDE] :: 83
CC(C)(C)OC(=O)Nc1nnc(S(N)(=O)=O)s1 :: 75
NS(=O)(=O)c1nnc(NC(=O)c2ccccc2)s1 :: 83
NS(=O)(=O)c1nnc(NS(=O)(=O)c2ccc(NC(=O)[C@@H]3C4C=CC(C4)C3C(=O)O)cc2)s1 (stereo not given in full) :: 25
NS(=O)(=O)c1nnc(NS(=O)(=O)Cc2ccccc2)s1 :: 67

---

Target or test system: Carbonic anhydrase 4 (Bos taurus)
Sequence (Q95323 whole entry): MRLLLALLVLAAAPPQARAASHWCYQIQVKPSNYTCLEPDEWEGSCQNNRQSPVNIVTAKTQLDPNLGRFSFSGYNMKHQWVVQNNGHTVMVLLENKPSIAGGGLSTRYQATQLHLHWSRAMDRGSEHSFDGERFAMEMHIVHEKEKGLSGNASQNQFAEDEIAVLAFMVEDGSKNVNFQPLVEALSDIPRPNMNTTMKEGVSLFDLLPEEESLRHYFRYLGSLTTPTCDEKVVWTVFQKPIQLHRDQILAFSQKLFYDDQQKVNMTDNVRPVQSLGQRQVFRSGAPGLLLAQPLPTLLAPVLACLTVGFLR
Measurement name: Ki (nM)

CCCC(CCC)C(=O)Nc1ccc(S(N)(=O)=O)cc1Cl :: 125
CCCC(CCC)C(=O)NCCC(=O)Nc1nnc(S(N)(=O)=O)s1 :: 76
CCCC(CCC)C(=O)Nc1ccc(S(N)(=O)=O)cc1F :: 110
CCCC(CCC)C(=O)OCCOc1ccc2nc(S(N)(=O)=O)sc2c1 :: 13
Cc1ccc(S(=O)(=O)NC(=O)Nc2nnc(S(N)(=O)=O)s2)cc1 :: 12
NS(=O)(=O)c1nnc(NS(=O)(=O)Cc2ccccc2)s1 :: 6
NS(=O)(=O)c1nnc(NC(=O)CCNS(=O)(=O)c2ccc(I)cc2)s1 :: 120
